# tested target: UniProt:P48039
# Sequence (P48039 whole entry): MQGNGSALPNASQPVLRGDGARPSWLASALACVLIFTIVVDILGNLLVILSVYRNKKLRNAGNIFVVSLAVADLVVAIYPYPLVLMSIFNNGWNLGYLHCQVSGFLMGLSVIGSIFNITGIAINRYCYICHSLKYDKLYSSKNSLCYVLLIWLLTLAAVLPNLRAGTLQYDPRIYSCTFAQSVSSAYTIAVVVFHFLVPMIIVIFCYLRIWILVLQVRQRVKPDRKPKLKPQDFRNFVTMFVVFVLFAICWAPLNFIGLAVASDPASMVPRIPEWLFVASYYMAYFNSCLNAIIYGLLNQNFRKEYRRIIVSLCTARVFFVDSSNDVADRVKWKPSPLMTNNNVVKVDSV
pKi: −log10 of the molar value.

smiles entry: CCCn1c(NC(=O)Cc2coc3cc(OC)ccc23)nc2ccccc21
pKi: 7.44

meta.source: BindingDB's records for PubMed 37866336
